All figures here come from patent US11932649B1.

System: human breast cancer cell line (MCF-7)
Assay: Anticancer activity against human breast cancer cell line MCF-7
Format: cell-based
Details: MCF7
Value Type: pIC50
For clarity, pIC50 is expressed as the negative log10 of concentration in mol/L.

Past entries and their recorded results:
O=c1nc(-c2cccc(OCc3ccccc3)c2)c2c(=O)[nH]c(=O)[nH]c2[nH]1; 6.18
COc1ccc(-c2nc(=O)[nH]c3[nH]c(=O)[nH]c(=O)c23)cc1O; 6.53

Below: the item to evaluate.
Which pIC50 reading was recorded for the compound `O=c1nc(-c2ccc(OCc3ccccc3)cc2)c2c(=O)[nH]c(=O)[nH]c2[nH]1` ?
7.42

====

Tested on: adeno carcinomic human alveolar basal epithelial cell line (A-549)
Test: Anticancer activity against human alveolar basal epithelial cell line A-549
Type: cell-based
Conditions: A549
Value Type: pIC50
For clarity, pIC50 is expressed as the negative log10 of concentration in mol/L.

Past entries and their recorded results:
O=c1nc(-c2ccc(OCc3ccccc3)cc2)c2c(=O)[nH]c(=O)[nH]c2[nH]1 [Compound 4b]; 7.09
COc1ccc(-c2nc(=O)[nH]c3[nH]c(=O)[nH]c(=O)c23)cc1O [Compound 4c]; 6.34

Which pIC50 reading was recorded for the compound O=c1nc(-c2cccc(OCc3ccccc3)c2)c2c(=O)[nH]c(=O)[nH]c2[nH]1 [Compound 4a] ?
6.29
